study.target: Hsp82 (Saccharomyces cerevisiae)
experimental.details: Hsp82/ATPase test (malachite green or PK/LDH coupled method)
Format: biochemical
protocol.conditions: 1 μM Hsp82, 250 μM ATP, 37° C.; read-out: Hsp82 ATPase IC50
measurement.label: IC50

get_value(item= COc1cncc(-c2cccc3c2c2ccccc2n3-c2ccc(C(N)=O)c(NCCCO)c2)c1 [Example 66] , readout=IC50) returns < 1000 nM

Recorded IC50 (molecule Nc1nn(CCO)c2cc(-n3c4ccccc4c4c(-c5nc6ccc(F)cc6[nH]5)cccc43)ccc12 [Example 16] ): 1000 to 10000 nM

// sample NC(=O)c1ccc(-n2c3ccccc3c3c(-c4cnc5ccccc5c4)cccc32)cc1NCCC1(O)CCCC1 [Example 64] , its IC50 was < 1000 nM

Provide IC50 values for the following items, in order.
1. NC(=O)CCNc1cc(-n2c3ccccc3c3c(-c4nc5ccc(F)cc5[nH]4)cccc32)ccc1C(N)=O [Example 47]
2. CC(CCO)Nc1cc(-n2c3ccccc3c3c(-c4nc5ccc(F)cc5[nH]4)cccc32)ccc1C(N)=O (racemic) [Example 39]
3. CNC(=O)CNc1cc(-n2c3ccccc3c3c(-c4nc5ccc(F)cc5[nH]4)cccc32)ccc1C(N)=O [Example 44]
4. NC(=O)c1ccc(-n2c3ccccc3c3c(-c4nc5ccc(F)cc5[nH]4)cccc32)cc1NCc1c[nH]cn1 [Example 57]
5. NC(=O)c1ccc(-n2c3ccccc3c3c(-c4ccc(C(F)(F)F)nc4)cccc32)cc1NCCCO [Example 69]
6. NC(=O)c1ccc(-n2c3ccccc3c3c(-c4nc5ccc(F)cc5[nH]4)cccc32)cc1NCc1ccco1 [Example 48]
7. NCC(=O)O[C@H]1CC[C@H](Nc2cc(-n3c4ccccc4c4c(-c5nc6ccc(F)cc6[nH]5)cccc43)ccc2C(N)=O)CC1 [Example 25]
8. NC(=O)c1ccc(-c2cccc3c2c2ccccc2n3-c2ccc(C(N)=O)c(N[C@H]3CC[C@H](O)CC3)c2)cn1 [Example 28]

< 1000 nM
< 1000 nM
1000 to 10000 nM
1000 to 10000 nM
1000 to 10000 nM
1000 to 10000 nM
1000 to 10000 nM
1000 to 10000 nM

Fill in IC50 for each of the 2 molecules listed.
1. NC(=O)c1ccc(-n2c3ccccc3c3c(-c4nc5ccc(F)cc5[nH]4)cccc32)cc1NC(CO)CO [Example 52]
2. NCCNc1cc(-n2c3ccccc3c3c(-c4nc5ccc(F)cc5[nH]4)cccc32)ccc1C(N)=O [Example 18]

1: < 1000 nM; 2: < 1000 nM

Can you give me IC50 for all of these, one by one?
1. NC(=O)c1ccc(-n2c3ccccc3c3c(-c4nc5ccc(F)cc5[nH]4)cccc32)cc1NCCF [Example 62]
2. CN(C)CCNc1cc(-n2c3ccccc3c3c(-c4nc5ccc(F)cc5[nH]4)cccc32)ccc1C(N)=O [Example 43]

< 1000 nM
< 1000 nM

====

Please go through the items and note down their IC50.
study.target: Hsp82 (Saccharomyces cerevisiae, UniProt P02829)
Sequence (P02829 whole entry): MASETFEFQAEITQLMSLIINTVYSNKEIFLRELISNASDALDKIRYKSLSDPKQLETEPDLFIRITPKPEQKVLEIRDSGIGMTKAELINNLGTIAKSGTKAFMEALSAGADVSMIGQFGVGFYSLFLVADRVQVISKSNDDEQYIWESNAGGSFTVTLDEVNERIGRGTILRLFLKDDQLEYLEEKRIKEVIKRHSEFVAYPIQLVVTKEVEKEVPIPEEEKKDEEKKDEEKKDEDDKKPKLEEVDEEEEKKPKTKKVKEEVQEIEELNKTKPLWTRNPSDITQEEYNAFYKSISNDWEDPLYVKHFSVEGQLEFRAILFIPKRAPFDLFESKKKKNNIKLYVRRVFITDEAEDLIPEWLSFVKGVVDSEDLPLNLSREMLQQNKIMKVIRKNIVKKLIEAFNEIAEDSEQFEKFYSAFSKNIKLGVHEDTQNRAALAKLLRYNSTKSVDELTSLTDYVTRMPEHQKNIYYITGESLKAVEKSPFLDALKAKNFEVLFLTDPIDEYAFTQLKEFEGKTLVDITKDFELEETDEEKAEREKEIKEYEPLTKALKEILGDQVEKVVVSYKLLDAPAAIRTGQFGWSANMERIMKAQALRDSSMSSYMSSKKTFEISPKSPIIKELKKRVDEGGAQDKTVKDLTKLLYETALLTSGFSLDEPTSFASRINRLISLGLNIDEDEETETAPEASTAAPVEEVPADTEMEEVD
experimental.details: Hsp82/ATPase test (malachite green or PK/LDH coupled method)
Assay type: biochemical
protocol.conditions: 1 μM Hsp82, 250 μM ATP, 37° C.; read-out: Hsp82 ATPase IC50
Structures can show the parent of a compound that is named as a salt.

Hsp82 (Saccharomyces cerevisiae, UniProt P02829) assay, compound "NC(=O)c1ccc(-n2c3ccccc3c3c(-c4nc5cc(F)ccc5[nH]4)cccc32)cc1N" , recorded IC50 = < 1000 nM

Summary: "NC(=O)c1ccc(-n2c3ccccc3c3c(-c4nc5ccc(F)cc5[nH]4)cccc32)cc1N[C@H]1CC[C@@H](O)CC1" , Hsp82 (Saccharomyces cerevisiae, UniProt P02829), IC50 = 1000 to 10000 nM

Form field, IC50 with Hsp82 (Saccharomyces cerevisiae, UniProt P02829), item NC(=O)c1ccc(-n2c3ccccc3c3c(-c4cnc(N)nc4)cccc32)cc1N[C@H]1CC[C@H](O)CC1 [Example 55, hydrochloride] : < 1000 nM

Continuing:
For "NC(=O)c1ncc(-n2c3ccccc3c3c(-c4cnc5ccccc5c4)cccc32)cc1N[C@H]1CC[C@H](O)CC1" on Hsp82 (Saccharomyces cerevisiae, UniProt P02829), measured IC50 was < 1000 nM

====

study.target: Hsp82 (Saccharomyces cerevisiae, UniProt P02829)
experimental.details: Hsp82/ATPase test (malachite green or PK/LDH coupled method)
Type: biochemical
protocol.conditions: 1 μM Hsp82, 250 μM ATP, 37° C.; read-out: Hsp82 ATPase IC50
measurement.label: IC50

For record NC(=O)c1ccc(-n2c3ccccc3c3c(-c4cnc5ccccc5c4)cccc32)cc1NCCCO [Example 31] the listed IC50 is < 1000 nM

Per the records, this compound ( CC(=O)NCCNc1cc(-n2c3ccccc3c3c(-c4nc5ccc(F)cc5[nH]4)cccc32)ccc1C(N)=O [Example 17] ) has IC50 equal to < 1000 nM

For NC(=O)c1ccc(-n2c3ccccc3c3c(-c4cnc5ccccc5c4)cccc32)cc1 [Example 30] the compound record lists IC50 as 1000 to 10000 nM

Would you kindly look at the next entry?
Record COCCCNc1cc(-n2c3ccccc3c3c(-c4cnc5ccccc5c4)cccc32)ccc1C(N)=O [Example 33] , field IC50: < 1000 nM

====

I'd appreciate it if you could supply IC50 values for the items below.
study.target: UniProt P02829
experimental.details: Hsp82/ATPase test (malachite green or PK/LDH coupled method)
Type: biochemical
protocol.conditions: 1 μM Hsp82, 250 μM ATP, 37° C.; read-out: Hsp82 ATPase IC50
Method: The biochemical activity of the compounds can in particular be evaluated by means of the “Hsp82/ATPase” test described below: The inorganic phosphate released during the hydrolysis of ATP by the ATPase activity of Hsp82 is quantified by the malachite green method. […] After incubation at ambient temperature for 20 min, the absorbance of the various wells is measured using a microplate reader at 620 nm. The inorganic phosphate concentration of each sample is then calculated from the standard curve. […]

# return IC50 for each item in the list
1. CC(C)(C)OC(=O)NCC(=O)O[C@H]1CC[C@H](Nc2cc(-n3c4ccccc4c4c(-c5nc6ccc(F)cc6[nH]5)cccc43)ccc2C(N)=O)CC1 [Example 21]
2. NC(=O)c1ccc(-n2c3ccccc3c3c(-c4nc5ccc(F)cc5[nH]4)cccc32)cc1NC1CCOCC1 [Example 59]
3. CC(=O)O[C@H]1CC[C@H](Nc2cc(-n3c4ccccc4c4c(-c5nc6ccc(F)cc6[nH]5)cccc43)ccc2C(N)=O)CC1 [Example 5]
4. NC(=O)c1ccc(-n2c3ccccc3c3c(-c4nc5ccncc5[nH]4)cccc32)cc1N[C@H]1CC[C@H](O)CC1 [Example 4]
5. CC(C)(C)OC(=O)CC(=O)O[C@H]1CC[C@H](Nc2cc(-n3c4ccccc4c4c(-c5nc6ccc(F)cc6[nH]5)cccc43)ccc2C(N)=O)CC1 [Example 15]

["1000 to 10000 nM", "< 1000 nM", "1000 to 10000 nM", "< 1000 nM", "1000 to 10000 nM"]

I'm hoping you can list IC50 for every molecule here, please.
1. NC(=O)CCNc1cc(-n2c3ccccc3c3c(-c4cnc5ccccc5c4)cccc32)ccc1C(N)=O [Example 34]
2. CCN(CC)CCNc1cc(-n2c3ccccc3c3c(-c4nc5ccc(F)cc5[nH]4)cccc32)ccc1C(N)=O [Example 3]

1. < 1000 nM
2. < 1000 nM

====

Would you kindly list IC50 for each of these compounds?
study.target: Hsp82 (Saccharomyces cerevisiae)
experimental.details: Hsp82/ATPase test (malachite green or PK/LDH coupled method)
Type: biochemical
protocol.conditions: 1 μM Hsp82, 250 μM ATP, 37° C.; read-out: Hsp82 ATPase IC50
Where a name gives a salt, the structure may show the parent alone.

Briefly, IC50 measured for CC(C)(C)OC(=O)NCCC(=O)O[C@H]1CC[C@H](Nc2cc(-n3c4ccccc4c4c(-c5nc6ccc(F)cc6[nH]5)cccc43)ccc2C(N)=O)CC1 [Example 23] : 1 to 10 µM

Measured IC50 of NC(=O)c1ccc(-n2c3ccccc3c3c(-c4ccc(N)nc4)cccc32)cc1N[C@H]1CC[C@H](O)CC1 [Example 20] : < 1 µM

Short answer for NC(=O)c1ccc(-n2c3ccccc3c3c(-c4nc5ccc(F)cc5[nH]4)cccc32)cc1F [Example 14] : IC50 was 1 to 10 µM

The recorded IC50 for NC(=O)c1ccc(-n2c3ccccc3c3c(-c4cnc(N)nc4)cccc32)cc1NCCCO [Example 56, hydrochloride] is < 1 µM

Entry CC(O)CCNc1cc(-n2c3ccccc3c3c(-c4nc5ccc(F)cc5[nH]4)cccc32)ccc1C(N)=O (racemic) [Example 37] — recorded IC50 = < 1 µM

So for NC(=O)c1ccc(-n2c3ccccc3c3c(-c4nc5ccc(F)cc5[nH]4)cccc32)nc1 [Example 19] , the logged IC50 turned out to be 1 to 10 µM

Next:
Per the record, COc1cncc(-c2cccc3c2c2ccccc2n3-c2ccc(C(N)=O)c(N[C@H]3CC[C@H](O)CC3)c2)c1 [Example 27] has IC50 of < 1 µM

Sourced from patent US8309721B2
